target: human NPY Y5 receptor (Homo sapiens); construct: expressed in transfected cells; assay: Affinity for NPY Y5 receptor ([125I] peptide YY binding, CHO cell membranes); details: inhibition of specific [125I] peptide YY binding, membranes of CHO cells expressing NPY Y5 receptor
measuredParameter: IC50 (nM)

> print(dat)
                                   compound                         assayedtarget  measuredparameter  measvalue
1  C[C@@H]1CN(c2ccc(NC(=O)[C@H]3CC[C@H](NS(=O)(=O)C(C)(C)C)CC3)cc2F)C[C@H](C)O1 [Ia-21]  human NPY Y5 receptor (Homo sapiens)               IC50        3.4
2  CC(C)S(=O)(=O)NC1CCC(C(=O)Nc2ccc3c(c2)C(=O)N(C)C3=O)CC1 (stereo not shown) [Ia-87]  human NPY Y5 receptor (Homo sapiens)               IC50       0.49

A. CC(C)S(=O)(=O)NC1CCN(C(=O)Nc2ccc(C3CCCCC3)cc2)CC1 [Ia-224]
B. COc1ccc(CCNC(=O)C2CCC(NS(=O)(=O)C(C)(C)C)CC2)cc1OC (stereo not shown) [Compound I-147]
Request: Kindly identify the item with the lower IC50 figure among these two: A and B // return label of chosen record
Result: A

* * *

molecular target: human NPY Y5 receptor (Homo sapiens, UniProt Q15761); construct: expressed in transfected cells; assay: Affinity for NPY Y5 receptor ([125I] peptide YY binding, CHO cell membranes); conditions: inhibition of specific [125I] peptide YY binding, membranes of CHO cells expressing NPY Y5 receptor
measuredParameter: IC50 (nM)

The cases that follow already have their IC50 on record.
> print(dat)
                                   molecule  measuredparameter  measvalue
1  CCCCOc1ccc(NC(=O)CCCCNS(=O)(=O)C(C)CC)cc1 (centres unmarked)               IC50        1.2
2  CCCCOc1ccc(NC(=O)C2CCC(NS(=O)(=O)C(C)(C)C)CC2)c([N+](=O)[O-])c1 (centres unmarked)               IC50        2.4
3  CC(C)(C)S(=O)(=O)NC1CCC(C(=O)Nc2ccc3scnc3c2)CC1 (centres unmarked)               IC50        1.9
4  CC(C)(C)S(=O)(=O)NC1CCC(C(=O)Nc2ccc(-n3cnc(Cl)c3Cl)cc2)CC1 (centres unmarked)               IC50       0.58

I. CC(C)S(=O)(=O)NC1CCC(C(=O)Nc2ccc(OC3CCOCC3)cc2)CC1 (centres unmarked)
II. C[C@@H]1CN(S(=O)(=O)c2cccc(NC(=O)C3CCC(NS(=O)(=O)C(C)(C)C)CC3)c2)C[C@H](C)O1 (some centres unmarked)
Request: Kindly identify the item with the lower IC50 figure among these two: I and II // return label of chosen record
Result: II

P. CC(C)S(=O)(=O)NC1CCC(C(=O)Nc2ccc(-c3ncco3)cc2)CC1 (centres unmarked) [Ia-204]
Q. CC(C)(C)S(=O)(=O)NC1CCC(C(=O)Nc2ccc(-c3ccc(N4CCCCC4)cc3)cc2)CC1 (centres unmarked)
Request: When their IC50 values are compared, which is larger, P or Q ? // return label of chosen record
Result: Q

* * *

Biological target: human NPY Y5 receptor (Homo sapiens)
Construct: expressed in transfected cells
Test: Affinity for NPY Y5 receptor ([125I] peptide YY binding, CHO cell membranes)
Conditions: inhibition of specific [125I] peptide YY binding, membranes of CHO cells expressing NPY Y5 receptor
Description: Experiment 1 Affinity for NPY Y5 Receptor cDNA sequence encoding a human NPY Y5 receptor (WO096/16542) was cloned in the expression vector pME18S (Takebe et al. Mol. Cell. Biol. 8, 8957). The obtained expression vector was transfected into a host CHO cells by using a Lipofect AMINE reagent (Trademark, Gibco BRL Co., Ltd.) according to an instruction protocol to obtain the cells that stably express NPY Y5 receptor. […]
pIC50: −log10 of the molar value.
measuredParameter: pIC50

The cases that follow already have their pIC50 on record.
> print(dat)
                                   compound  measuredparameter  measvalue
1  CC(C)(C)S(=O)(=O)NC1CCC(C(=O)NCc2cccc3ccccc23)CC1 (centres unmarked)              pIC50       8.96
2  CC(C)(C)S(=O)(=O)NC1CCC(C(=O)Nc2ccc(OCC3CCCCO3)cc2)CC1 (centres unmarked)              pIC50       8.72
3  CC(C)(C)S(=O)(=O)NC1CCC(C(=O)Nc2ccc(Nc3ccccc3)cc2)CC1 (centres unmarked)              pIC50       9.21
4  CC(C)(C)Oc1ccc(NC(=O)CCCCNS(=O)(=O)C(C)(C)C)cc1              pIC50       9.28
5  CC(C)(C)S(=O)(=O)NC1CCC(C(=O)Nc2cccc3cc4ccccc4cc23)CC1 (centres unmarked)              pIC50       8.68

P. CC(C)(C)S(=O)(=O)NC1CCN(C(=O)Nc2ccc(C(F)(F)F)cn2)CC1
Q. CC(C)(C)S(=O)(=O)NC1CCC(C(=O)NCCSCc2c(Cl)cccc2Cl)CC1 (centres unmarked)
Request: Kindly identify the item with the lower pIC50 figure among these two: P and Q // return label of chosen record
Result: P
(P: 8.72, Q: 9.77)

* * *

Target: human NPY Y5 receptor (Homo sapiens)
Construct: expressed in transfected cells
Sequence (Q15761 1-445): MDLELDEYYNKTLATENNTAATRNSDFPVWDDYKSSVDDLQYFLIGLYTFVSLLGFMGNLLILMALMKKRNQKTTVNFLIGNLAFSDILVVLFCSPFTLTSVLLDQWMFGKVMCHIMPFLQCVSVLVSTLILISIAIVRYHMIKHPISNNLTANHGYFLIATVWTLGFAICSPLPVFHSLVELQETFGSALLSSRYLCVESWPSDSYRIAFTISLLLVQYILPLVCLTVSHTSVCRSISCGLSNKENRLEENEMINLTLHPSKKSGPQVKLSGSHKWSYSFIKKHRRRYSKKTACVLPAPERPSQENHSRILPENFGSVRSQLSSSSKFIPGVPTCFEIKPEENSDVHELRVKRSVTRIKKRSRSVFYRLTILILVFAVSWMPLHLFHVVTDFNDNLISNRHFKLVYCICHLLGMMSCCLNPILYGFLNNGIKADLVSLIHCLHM
Test: cAMP production inhibitory activity in CHO cells
Assay type: cell-based
Details: against 50 nM NPY inhibition of forskolin stimulated cAMP, CHO cells expressing human NPY Y5 receptor
measuredParameter: IC50 (nM)

1. CC(C)(C)S(=O)(=O)NC1CCC(C(=O)Nc2ccc(N3CC=CC3)cc2)CC1 (centres unmarked)
2. CC(C)(C)S(=O)(=O)NC1CCC(C(=O)Nc2cccc3c2CCCC3)CC1 (centres unmarked)
3. CC(C)S(=O)(=O)NC1CCC(C(=O)Nc2ccc(N3C[C@@H](C)O[C@@H](C)C3)nc2)CC1 (some centres unmarked)
4. CCN(CCNC(=O)C1CCC(NS(=O)(=O)C(C)(C)C)CC1)c1ccccc1 (centres unmarked)
5. CCn1c2ccccc2c2cc(NC(=O)C3CCC(NS(=O)(=O)C(C)(C)C)CC3)ccc21 (centres unmarked)
Request: Let's sort these by IC50, smallest first. Go ahead? Sort and list the labels as requested.
Result: 1, 3, 5, 4, 2

* * *

target: human NPY Y5 receptor (Homo sapiens); construct: expressed in transfected cells; experiment: cAMP production inhibitory activity in CHO cells; type: cell-based; details: against 50 nM NPY inhibition of forskolin stimulated cAMP, CHO cells expressing human NPY Y5 receptor
measuredParameter: IC50 (nM)

The cases that follow already have their IC50 on record.
> print(dat)
                                   compound                         assayedtarget  measuredparameter  unitstext  measvalue
1  CC(C)S(=O)(=O)NC1CCC(C(=O)Nc2cccc(OCC3CC3)c2)CC1 (centres unmarked)  human NPY Y5 receptor (Homo sapiens)               IC50         nM        2.5
2  CCCCc1ccc(NC(=O)C23CCC(NS(=O)(=O)C(C)(C)C)(CC2)CC3)cc1  human NPY Y5 receptor (Homo sapiens)               IC50         nM        168
3  CC(C)(C)S(=O)(=O)NC1CCC(C(=O)Nc2ccc(N3CCN(c4ncccn4)CC3)cc2)CC1 (centres unmarked)  human NPY Y5 receptor (Homo sapiens)               IC50         nM         40
4  CC(C)(C)S(=O)(=O)NC1CCC(C(=O)Nc2cccc3c2Cc2ccccc2-3)CC1 (centres unmarked)  human NPY Y5 receptor (Homo sapiens)               IC50         nM        3.9
5  CC(C)(C)S(=O)(=O)NC1CCC(C(=O)Nc2ccc(Cl)cc2)CC1 (centres unmarked)  human NPY Y5 receptor (Homo sapiens)               IC50         nM         28

I. CCCCc1ccc(NC(=O)CCCCNS(=O)(=O)CC(C)C)cc1
II. CC(C)(C)S(=O)(=O)NC1CCC(C(=O)Nc2ccc(-c3ccc(C#N)cc3)cc2)CC1 (centres unmarked)
III. CC(C)(C)S(=O)(=O)NC1CCC(C(=O)Nc2ccc(N3CCC(=O)CC3)cc2)CC1 (centres unmarked)
IV. Cc1cc(NC(=O)[C@H]2CC[C@H](NS(=O)(=O)C(C)(C)C)CC2)ccc1N1C[C@@H](C)O[C@@H](C)C1
V. CC(C)(C)S(=O)(=O)NC1CCC(C(=O)Nc2ccc(-n3cccc3)cc2)CC1 (centres unmarked)
Request: Endpoint returns the given compounds ordered by ascending IC50. Sort and list the labels as requested.
Result: V, I, III, IV, II
(V: 5.3 nM, I: 13.6 nM, III: 22 nM, IV: 38 nM, II: 68.2 nM)

a. Cc1ccc(NC(=O)C2CCC(NS(=O)(=O)C(C)(C)C)CC2)cc1F (centres unmarked)
b. CC(C)(C)S(=O)(=O)NC1CCC(C(=O)Nc2ccc(-n3cccn3)cc2)CC1 (centres unmarked)
Request: When their IC50 values are compared, which is larger, a or b ? // return label of chosen record
Result: b
(b: 28 nM, a: 18 nM)

P. CCC(C)COC(=O)/C=C/c1ccc(NC(=O)C2CCC(NS(=O)(=O)C(C)(C)C)CC2)cc1 (centres unmarked)
Q. CC(C)S(=O)(=O)NC1CCC(C(=O)Nc2ccc3c(c2)CCC3)CC1 (centres unmarked)
R. CC(C)NC(=O)c1cccc(NC(=O)c2ccc(NS(=O)(=O)C(C)(C)C)cc2)c1
Request: Endpoint returns the given compounds ordered by ascending IC50. Sort and list the labels as requested.
Result: Q, P, R

I. CC(C)(C)S(=O)(=O)NC1CCC(C(=O)Nc2ccc(Cc3ccncc3)cc2)CC1 (centres unmarked)
II. CC(C)(C)S(=O)(=O)NC1CCC(C(=O)Nc2ccc(C(F)(F)F)cn2)CC1 (centres unmarked)
Request: When their IC50 values are compared, which is larger, I or II ? // return label of chosen record
Result: I
(I: 54 nM, II: 16 nM)
